assay.explanation: qHTS assay for small molecule disruptors of the mitochondrial membrane potential - cell viability (AID 720634); further: nearly all actives have a fitted effect of over 20% in size
stated.conditions: HepG2 viability, ATP luminescence (CellTiter-Glo), 1 h; series mostly up to 83.2 µM
Results filed as inconclusive are left out. Active and inactive are the calls of the source. The call rests on the fitted dose curve.
Outcome field: choose from Y = active, N = inactive

Some solved entries appear below for comparison.
structure.smiles.string	classification
Nc1ncnc2c1ncn2[C@@H]1O[C@H](COP(=O)(O)OP(=O)(O)OP(=O)(O)O)[C@@H](O)[C@H]1O	Y
O=[N+]([O-])c1c(Cl)cccc1-c1c[nH]cc1Cl	Y
NC(=O)c1ccc[n+]([C@@H]2O[C@H](COP(=O)([O-])OP(=O)(O)OC[C@H]3O[C@@H](n4cnc5c(N)ncnc54)[C@H](O)[C@@H]3O)[C@@H](O)[C@H]2O)c1	N

Lab note: next compound to report on.
Ask | Dear all, I need the recorded test outcome for "CC(=O)Oc1cc(C)c(OC(C)=O)c2ccccc12" , thank you.
Reply | N
